target: GLP-1R (Homo sapiens, UniProt P43220); assay: GLP-1R activation: cAMP increase in CHO cells stably expressing GLP-1R; assay type: cell-based; conditions: cAMP increase, CHO cells stably expressing GLP-1R, 10 point dose response, 30 minutes incubation; read-out: EC50
Sequence (P43220 24-463): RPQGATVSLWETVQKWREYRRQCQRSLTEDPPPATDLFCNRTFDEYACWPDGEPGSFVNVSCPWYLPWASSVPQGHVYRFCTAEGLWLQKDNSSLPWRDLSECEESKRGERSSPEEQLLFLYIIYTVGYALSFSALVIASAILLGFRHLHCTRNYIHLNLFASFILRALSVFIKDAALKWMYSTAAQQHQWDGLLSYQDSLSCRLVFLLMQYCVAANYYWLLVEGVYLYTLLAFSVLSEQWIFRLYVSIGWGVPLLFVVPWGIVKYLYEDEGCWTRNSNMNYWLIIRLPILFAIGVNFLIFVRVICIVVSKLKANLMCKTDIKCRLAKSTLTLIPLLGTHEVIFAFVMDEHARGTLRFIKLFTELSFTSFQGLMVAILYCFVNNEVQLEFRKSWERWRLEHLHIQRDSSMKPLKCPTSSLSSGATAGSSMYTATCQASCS
Recorded EC50, one value per entry.
Dear colleague, please return just the value in nM, with no unit written.

// solved cases for EC50 follow
N#Cc1ccc(COc2cccc(-c3cc(F)c(Cc4nc5ccc(C(=O)O)cc5n4[C@H]4COC[C@H]4F)cc3F)n2)c(F)c1; 0.29
N#Cc1ccc(COc2cccc(-c3cc(F)c(Cc4nc5ccc(C(=O)O)nc5n4CC4(CF)CC4)cc3F)n2)c(F)c1; 2.12

query: Return value of EC50 for input N#Cc1ccc(COc2nc(-c3ccc(Cc4nc5ccc(C(=O)O)cc5n4CC4(CF)CC4)c(F)c3)ccc2F)c(F)c1 , no commentary.
result: 0.34

query: Return value of EC50 for input N#Cc1ccc(COc2cccc(-c3cc(F)c(Cc4nc5ccc(C(=O)O)cc5n4C4CCCOC4)cc3F)n2)c(F)c1 (centres unmarked) , no commentary.
result: 3.6

query: Return value of EC50 for input COCCn1c(Cc2ccc(-c3cccc(OCc4nccn4C)n3)cc2F)nc2ccc(C(=O)O)cc21 , no commentary.
result: 6560

query: Return value of EC50 for input COCCn1c(Cc2cc(F)c(-c3cccc(OCc4ccc(-c5ccccn5)cc4F)n3)cc2F)nc2ccc(C(=O)O)cc21 , no commentary.
result: 33.4

query: Return value of EC50 for input N#Cc1ccc(COc2nc(-c3cc(F)c(Cc4nc5ccc(C(=O)O)cc5n4CCOC4CC4)cc3F)ccc2F)c(F)c1 , no commentary.
result: 1.26

query: Return value of EC50 for input N#Cc1ccc(COc2cccc(-c3ccc(Cc4nc5ccc(C(=O)O)cc5n4C4(CF)CC4)cc3F)n2)c(F)c1 , no commentary.
result: 48.8

query: Return value of EC50 for input N#Cc1ccc(COc2cccc(-c3cc(F)c(Cc4nc5ccc(C(=O)O)cc5n4Cc4cncs4)cc3F)n2)c(F)c1 , no commentary.
result: 1.31

query: Return value of EC50 for input N#Cc1ccc(COc2nc(-c3cc(F)c(Cc4nc5ccc(C(=O)O)cc5n4C[C@@H]4CCO4)cc3F)ncc2F)c(F)c1 , no commentary.
result: 0.17

###

Recorded Predicted Hepatic Clearance (Pred. Cl.), one value per entry.
test: Microsomal stability, human liver microsomes (predicted hepatic clearance); conditions: predicted from in vitro microsomal stability data
Dear colleague, please return just the value in mL/min/kg, with no unit written.

// solved cases for Predicted Hepatic Clearance (Pred. Cl.) follow
CN(C)CC1(Cn2c(Cc3ccc(-c4cccc(OCc5ccc(C#N)cc5F)n4)cc3F)nc3ccc(C(=O)O)cc32)CC1 [Example 290]; 8.42
O=C(O)c1ccc2nc(Cc3ccc(-c4cccc(OCc5ccc(C(F)(F)F)cc5F)n4)cc3F)n(C[C@@H]3CCO3)c2c1 [Example 667]; 6
COCCn1c(Cc2ccc(-c3cccc(OCc4ccc(C5(C#N)CC5)cc4)n3)cc2F)nc2ccc(C(=O)O)cc21 [Example 266]; 6.17
N#Cc1ccc(COc2cccc(-c3cc(F)c(Cc4nc5ccc(C(=O)O)cc5n4Cc4cnccn4)cc3F)n2)c(F)c1 [Example 310]; 6.33
COCCn1c(Cc2ccc(-c3cccc(NC(=O)c4ccc(C#N)cc4F)n3)cc2F)nc2ccc(C(=O)O)cc21 [Example 113]; 9.83

query: Return value of Predicted Hepatic Clearance (Pred. Cl.) for input N#Cc1ccc(COc2cccc(-c3ccc(Cc4nc5ccc(C(=O)O)cc5n4CC4(c5ccncc5)CC4)c(F)c3)n2)c(F)c1 [Example 275] , no commentary.
result: 12.2

query: Return value of Predicted Hepatic Clearance (Pred. Cl.) for input COCCn1c(Cc2ccc(-c3cccc(OCc4ccc(C#N)c(F)c4OC)n3)cc2F)nc2ccc(C(=O)O)cc21 [Example 363] , no commentary.
result: 7.75

query: Return value of Predicted Hepatic Clearance (Pred. Cl.) for input N#Cc1ccc(COc2cccc(-c3ccc(Cc4nc5ccc(C(=O)O)cc5n4CC4(CO)CC4)c(F)c3)n2)c(F)c1 [Example 375] , no commentary.
result: 4.25

query: Return value of Predicted Hepatic Clearance (Pred. Cl.) for input COCCn1c(Cc2ccc(-c3cccc(OCc4ccc(C#N)cc4OCC(F)F)n3)cc2F)nc2ccc(C(=O)O)cc21 [Example 245] , no commentary.
result: 4.5

query: Return value of Predicted Hepatic Clearance (Pred. Cl.) for input N#Cc1ccc(COc2cccc(-c3cc(F)c(Cc4nc5ccc(C(=O)O)cc5n4Cc4ccon4)cc3F)n2)c(F)c1 [Example 486] , no commentary.
result: 5

query: Return value of Predicted Hepatic Clearance (Pred. Cl.) for input C[C@@H](C1CC1)n1c(Cc2ccc(-c3cccc(OCc4ccc(C#N)cc4F)n3)cc2F)nc2ccc(C(=O)O)cc21 [Example 220] , no commentary.
result: 6.5

query: Return value of Predicted Hepatic Clearance (Pred. Cl.) for input COCCn1c(Cc2cc(F)c(-c3cccc(OCc4ccc(C)cn4)n3)cc2F)nc2ccc(C(=O)O)cc21 [Example 803] , no commentary.
result: 13.3
